# experimental.target: IDO (SKOV-3 cells) (Homo sapiens (Human))
# protocol.notes: IDO cell-based assay (kynurenine production in IFNγ-induced SKOV-3 cells)
# condition.label: IFNγ 500 ng/ml, 500 μM L-Trp, 48 h, read-out: pIC50, IDO cellular assay (SKOV3) (converted)
Note to self: use Yes only for IC50 readings below 0.09 µM; a reading exactly at 0.09 µM still gets No.

Query :: Could you please tell me whether IC50 recorded for C[C@H]1C[C@@]1(NC(=O)c1cc2cc(Cl)ccc2[nH]1)c1cnn(-c2ccc(F)cc2)c1 (single isomer, unassigned) [Compound 11, enantiomer 1] is less than 0.09 µM?
Result :: Yes

---

# experimental.target: IDO (SKOV-3 cells) (Homo sapiens (Human), UniProt P14902)
# Sequence (P14902 whole entry): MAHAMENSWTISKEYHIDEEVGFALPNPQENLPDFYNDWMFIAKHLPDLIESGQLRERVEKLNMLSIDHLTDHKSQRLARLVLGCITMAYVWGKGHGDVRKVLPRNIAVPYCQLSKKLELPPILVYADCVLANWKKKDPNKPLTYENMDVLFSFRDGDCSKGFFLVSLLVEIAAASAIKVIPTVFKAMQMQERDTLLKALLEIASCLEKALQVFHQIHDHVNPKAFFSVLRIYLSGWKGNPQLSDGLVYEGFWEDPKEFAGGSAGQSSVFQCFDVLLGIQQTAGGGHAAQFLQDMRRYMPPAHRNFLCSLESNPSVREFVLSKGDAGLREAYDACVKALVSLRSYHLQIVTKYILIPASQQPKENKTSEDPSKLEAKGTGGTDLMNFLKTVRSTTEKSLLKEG
# protocol.notes: IDO cell-based assay (kynurenine production in IFNγ-induced SKOV-3 cells)
# condition.label: IFNγ 500 ng/ml, 500 μM L-Trp, 48 h, read-out: pIC50, IDO cellular assay (SKOV3) (converted)
measured.property: IC50 (nM)
Write the value in nM as a bare number.

Please review the following examples before continuing.
| compound | measured.property | quantitative.readout |
| --- | --- | --- |
| C[C@H]1C[C@@]1(NC(=O)c1cc2cc(Cl)ccc2[nH]1)c1cnn(-c2ccc(Cl)cc2)c1 (single isomer, unassigned) [Compound 10, enantiomer 1] | IC50 | 34.7 |
| CC(C)c1nn(C)cc1C1(NC(=O)c2cc3cc(Cl)ccc3[nH]2)CC1 | IC50 | 87.1 |
| Cn1cc(C2(NC(=O)c3cc4cc(Cl)ccc4[nH]3)CC2)cn1 [REF 1, reference compound] | IC50 | 126 |
| CCn1cc(C2(NC(=O)c3cc4cc(Cl)ccc4[nH]3)CC2)cn1 [REF 2, reference compound] | IC50 | 186 |
| Cn1cc(C2(NC(=O)c3cc4cc(Br)cc(F)c4[nH]3)CC2)cn1 | IC50 | 83.2 |

Query :: Please give the measured IC50 for this compound: C[C@H]1C[C@@]1(NC(=O)c1cc2cc(Br)ccc2[nH]1)c1cnn(C)c1 (racemic) [Compound 2, racemic]
Result :: 31.6
